- Test protocol: Quantitative High-Throughput drug screen in 47 multiple myeloma cell lines against the NCATS MIPE library collection: VP6_DJ cell viability assay (AID 1919867); also: nearly all actives have a fitted effect of over 40% in size
- Condition: ATP luminescence, 48 h; series mostly up to 45.8 µM
Results filed as inconclusive are left out. Active and inactive are the calls of the source. Calls follow the shape of the dose curve; as a rule, active = well fitted cell-killing curve with a large enough effect; inconclusive = small, poorly fitted or top-dose-only effect, or effect the other way; inactive = no such curve, though single readings can be large or run the other way.
Classes used: label 1 for active, label 0 for inactive

Molecule: COc1ccc2c(Oc3ccc(NC(=O)c4c(C)n(CC(C)(C)O)n(-c5ccccc5)c4=O)cc3F)ccnc2c1
Class name: label 1
//
Molecule: NC1=N[C@@]2(c3cc(NC(=O)c4ccc(F)cn4)ccc3F)COC[C@@H]2CS1
Class name: label 1
//
Molecule: Cc1c(O)cccc1C(=O)N[C@@H](CSc1ccccc1)[C@H](O)CN1C[C@H]2CCCC[C@@H]2C[C@@H]1C(=O)NC(C)(C)C
Class name: label 1
//
Molecule: COC[C@@H](c1ccc(C(F)(F)F)cc1)N1CCN(C2(C)CCN(C(=O)c3c(C)ncnc3C)CC2)C[C@H]1C
Class name: label 1
//
Molecule: CNC(=O)c1ccccc1Sc1ccc2c(C=Cc3ccccn3)n[nH]c2c1
Class name: label 1
//
Molecule: O=C1C(Cl)=C(NCCN2CCOCC2)C(=O)c2ncccc21
Class name: label 1
//
Molecule: Cc1[nH]c(C=C2C(=O)Nc3ccc(S(=O)(=O)Cc4c(Cl)cccc4Cl)cc32)c(C)c1C(=O)N1CCC[C@H]1CN1CCCC1
Class name: label 1
//
Molecule: Clc1ccc(COC(Cn2ccnc2)c2ccc(Cl)cc2Cl)cc1 (centres undefined)
Class name: label 1
//
Molecule: O=C(OCC#CCSc1nnc(-c2cccc3ccccc23)o1)c1cc2ccccc2s1
Class name: label 0
//
Molecule: O=C1Nc2ccc(Cl)cc2C(C#CC2CC2)(C(F)(F)F)O1 (centres undefined)
Class name: label 1
//
Molecule: CC(C)OC(=O)C(C)(C)Oc1ccc(C(=O)c2ccc(Cl)cc2)cc1
Class name: label 1
//
Molecule: CC(C)(C)c1cc(C(=O)O)c(NC(=O)Nc2ccc3[nH]ncc3c2)s1
Class name: label 0
//
Molecule: Clc1ccc(C(c2ccc(Cl)cc2)n2cc[n+](CC(OCc3ccc(Cl)cc3Cl)c3ccc(Cl)cc3Cl)c2)cc1 (centres undefined)
Class name: label 1
//
Molecule: O=c1cc(-c2cccc3c2Sc2ccccc2S3)oc(N2CCOCC2)c1
Class name: label 1
//
Molecule: O=C1c2ccccc2-[n+]2ccc3c([nH]c4ccccc43)c21
Class name: label 1
//
Molecule: COC1CCC(N(C(=O)C2CCC(C)CC2)c2cc(C3=CCCCC3)sc2C(=O)O)CC1 (centres undefined)
Class name: label 1
//
Molecule: CC(C)(C)Cn1c(N)nc2ccc(-c3[nH]c(C(C)(C)C)nc3-c3ccc(F)cc3)nc21
Class name: label 1
//
Molecule: COc1cc2nc(-c3ccc(N4CCN(C)CC4)cc3)nc(NCCN3CCOCC3)c2cc1OC
Class name: label 1
//
Molecule: COc1ccc(-c2coc3cc(O)cc(O)c3c2=O)cc1
Class name: label 0

====

- Test protocol: Quantitative High-Throughput drug screen in 47 multiple myeloma cell lines against the NCATS MIPE library collection: NCIH929_DSMZ cell viability assay (AID 1918978); also: nearly all actives have a fitted effect of over 35% in size
- Condition: NCI-H929 myeloma viability, CellTiter-Glo ATP, 48 h; series mostly up to 45.8 µM
Results filed as inconclusive are left out. The source made the active and inactive calls. Calls come from the whole dose curve; as a rule, active = well fitted cell-killing curve with a large enough effect; inconclusive = small, poorly fitted or top-dose-only effect; inactive = no such curve, though single readings can be large or run the other way.
Classes used: T for active, F for inactive

Given smiles: CCc1ccc(C=C2SC(=S)NC2=O)cc1
Class name: F

Given smiles: NC(=O)c1ccc2nc(-c3ccc(Oc4ccc(Cl)cc4)cc3)[nH]c2c1
Class name: T

Given smiles: CC[C@H]1OC(=O)[C@H](C)[C@@H](O[C@H]2C[C@@](C)(OC)[C@@H](O)[C@H](C)O2)[C@H](C)[C@@H](O[C@@H]2O[C@H](C)C[C@H](N(C)C)[C@@H]2O)[C@](C)(O)C[C@@H](C)CN(C)[C@H](C)[C@@H](O)[C@]1(C)O
Class name: F

Given smiles: O=c1cc(N2CCOCC2)oc2c(-c3cccc4c3sc3ccccc34)cccc12
Class name: T

Given smiles: CO[C@H]1C(=O)[C@]2(C)[C@@H](OC)C[C@H]3OC[C@@]3(OC(C)=O)[C@H]2[C@H](OC(=O)c2ccccc2)[C@]2(O)C[C@H](OC(=O)[C@H](O)[C@@H](NC(=O)OC(C)(C)C)c3ccccc3)C(C)=C1C2(C)C
Class name: F

Given smiles: CN(C)c1cc(NC(=O)CNC(C)(C)C)c(O)c2c1C[C@@H]1C[C@H]3[C@H](N(C)C)C(=O)C(C(N)=O)=C(O)[C@@]3(O)C(=O)C1=C2O
Class name: F

Given smiles: Cc1ccn(-c2ccc(-c3ncco3)cc2)c(=O)c1-c1ccc2nc(N)ncc2c1
Class name: F
